Hello, the source for this data is PubChem BioAssay (EPA / NIEHS), in case you need it.

# Experimental Protocol: TOX21_p53_BLA_p3_viability: Viability Assessment in the Tox21 HCT-116 p53 Agonism Beta-lactamase Assay, Phase 3 (AID 2283593);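 also: cells exposed to compound for 16 h before reading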
# From the text: TOX21_p53_BLA_p3 is a cell-based, single-readout assay that uses HCT116, a human intestinal cell line, […] in a 1536-well plate.TOX21_p53_BLA_p3_viability is an assay readout measuring cellular ATP content and detected with CellTiter-Glo Luciferase-coupled ATP quantitation.TOX21_p53_BLA_p3_viability used a type of viability reporter where loss-of-signal activity can be used to understand changes in the cell viability. […]
Inconclusive results are not listed. The source made the active and inactive calls. The calls were made as follows: active = hit-call score of the fitted dose curve at least 0.9, where 1 is the maximum; inconclusive = response in the unintended direction; inactive = score below 0.9.
Hello, when you answer, please use one of the following outcomes: active, inactive

Recorded results for 2 compounds are shown here.
CC[N+](C)(CC)CCOC(=O)C(O)(c1ccccc1)c1ccccc1	inactive
O=C/C=C/c1ccco1	inactive

Hi, do you know how O=C(NC(=O)c1ccccc1Cl)Nc1ccc(OC(F)(F)F)cc1 came out in this test?
inactive

Hi, do you know how COc1ccc2c(c1OC)C(=O)O[C@@H]2[C@H]1c2cc3c(cc2CCN1C)OCO3 came out in this test?
inactive

Hi, do you know how c1ccc2cc3c(cc2c1)-c1cccc2cccc-3c12 came out in this test?
inactive

Hi, do you know how CCCC1CCCCN1 (configuration not stated) came out in this test?
inactive

Hi, do you know how CC(=O)OCC1=C(C(=O)O)N2C(=O)[C@@H](N)[C@H]2SC1 came out in this test?
inactive

Hi, do you know how O=C(O)c1ccc2[nH]cc(CCCCN3CC=C(c4ccccc4)CC3)c2c1 came out in this test?
inactive

Hi, do you know how Cc1cc(C(C)(C)c2cc(C)c(O)c(C)c2)cc(C)c1O came out in this test?
inactive

Hi, do you know how C[C@]12Cc3nonc3C[C@@H]1CC[C@@H]1[C@@H]2CC[C@@]2(C)[C@H]1CC[C@]2(C)O came out in this test?
active

* * *

# Experimental Protocol: TOX21_p53_BLA_p5_viability: Viability Assessment in the Tox21 HCT-116 p53 Agonism Beta-lactamase Assay, Phase 5 (AID 2283600)
Records with an inconclusive call do not appear. The source made the active and inactive calls. Rule for the calls: active = hit-call score of the fitted dose curve at least 0.9, where 1 is the maximum; inconclusive = response in the unintended direction; inactive = score below 0.9.
Hello, when you answer, please use one of the following outcomes: active, inactive

Recorded results for 5 compounds are shown here.
CCOC(=O)C(Cl)C(C)=O (configuration not stated)	inactive
O=P1(N(CCCl)CCCl)NC(OO)CCO1 (configuration not stated)	inactive
Oc1c(Br)c(Br)c(Br)c(Br)c1Br	inactive
O=[N+]([O-])c1cc(I)c(O)c(I)c1	active
C=C(C#N)CCC#N	inactive

Hi, do you know how CC1(C)[C@H](C=C(Cl)Cl)[C@@H]1C(=O)O[C@@H](C#N)c1cccc(Oc2ccccc2)c1 came out in this test?
inactive

Hi, do you know how CN(C)S(=O)(=O)N(SC(F)(Cl)Cl)c1ccccc1 came out in this test?
active

Hi, do you know how Cc1ccc(OP(=O)(Oc2ccc(C)cc2)Oc2ccc(C)cc2)cc1 (tested in a mixture with another compound) came out in this test?
inactive

Hi, do you know how CC(=O)c1cc2c(cc1C)C(C)(C)C(C)CC2(C)C (configuration not stated) came out in this test?
inactive

Hi, do you know how C=C(Cl)CCl came out in this test?
inactive

Hi, do you know how CC(C)[N+](C)(CCC(C(N)=O)(c1ccccc1)c1ccccc1)C(C)C came out in this test?
inactive

Hi, do you know how O=P(Cl)(Cl)Cl came out in this test?
inactive

Hi, do you know how c1ccc(C2CC2)c(OCC2=NCCN2)c1 came out in this test?
inactive

Hi, do you know how S=C=Nc1ccccc1 came out in this test?
inactive

Hi, do you know how C=CCCC#N came out in this test?
inactive

* * *

# Experimental Protocol: CCTE_Shafer_MEA_acute_burst_percentage_std: CCTE's Neural Acute Assay for Standard Deviation of Burst Percentage, Shafer Lab (AID 2284018);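 also: fitted in the negative direction so actives lower burst percentage SD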
Activity calls are given as the source filed them. Rule for the calls: active = hit-call score of the fitted dose curve at least 0.9, where 1 is the maximum; inactive = score below 0.9.
Hello, when you answer, please use one of the following outcomes: 1 (active), 0 (inactive)

Recorded results for 5 compounds are shown here.
O=c1c2ccccc2c(=O)c2c1cc(Cl)c1[nH]c3c([nH]c12)c(Cl)cc1c(=O)c2ccccc2c(=O)c13	0
CC1(C)[C@@H](C=C(Cl)Cl)[C@@H]1C(=O)O[C@@H](C#N)c1ccc(F)c(Oc2ccccc2)c1	1
c1cc[n+]2c(c1)-c1cccc[n+]1CC2	0
O=[N+]([O-])O	0
CCCC[N+](CCCC)(CCCC)CCCC	1

Please look at the following compound next.
Hi, do you know how CP(=O)(O)CCC(N)C(=O)O (stereo unspecified) came out in this test?
0

* * *

# Test Target: Transcription factor Sp1 (Homo sapiens)
# Experimental Protocol: ATG_Sp1_CIS: Attagene CIS-FACTORIAL HepG2 Assay for human Specificity Protein 1 (Sp1) (AID 2282961)
# Test Parameters: HepG2 Sp1 cis-reporter transcription, actives raise or lower the signal
The source made the active and inactive calls. Rule for the calls: active = hit-call score of the fitted dose curve at least 0.9, where 1 is the maximum; inactive = score below 0.9.
Hello, when you answer, please use one of the following outcomes: 1 (yes) = active, 0 (no) = inactive

N#CCCCl	0 (no)
CCCCCCCCCCCC#N	1 (yes)
CC1(C)[C@H](C(=O)O[C@H](C#N)c2cccc(Oc3ccccc3)c2)[C@@H]1C=C(Br)Br	0 (no)
ClCCCCCCCl	0 (no)
[CH3][Sn]([CH3])([Cl])[Cl]	0 (no)
CCOC(=O)NC(=S)Nc1ccccc1NC(=S)NC(=O)OCC	0 (no)

Hi, do you know how [Cl][Sb]([Cl])[Cl] came out in this test?
0 (no)

Hi, do you know how CC(C)(c1cc(Cl)c(O)c(Cl)c1)c1cc(Cl)c(O)c(Cl)c1 came out in this test?
0 (no)

Hi, do you know how CC=Cc1ccc2c(c1)OCO2 came out in this test?
0 (no)

Hi, do you know how C=C(Cl)Cl came out in this test?
0 (no)

Hi, do you know how Oc1cc(Cl)ccc1Cl came out in this test?
0 (no)

Hi, do you know how CCC(Br)(CC)C(=O)NC(N)=O came out in this test?
0 (no)

Hi, do you know how SCc1ccco1 came out in this test?
0 (no)

Hi, do you know how CN1C(=O)CCS(=O)(=O)C1c1ccc(Cl)cc1 (stereo not given) came out in this test?
0 (no)

Hi, do you know how CCC(=O)c1ccc(Cl)cc1 came out in this test?
0 (no)

* * *

# Read-out: Plasminogen activator inhibitor-1 (PAI1), SERPINE1 (gene 5054)
# Experimental Protocol: BSK_hDFCGF_PAI1: BioMAP Diversity Plus: hDFCGF Assay for Plasminogen activator inhibitor-1 (PAI1) Biomarker Activity (AID 2283066)
# Test Parameters: primary human foreskin fibroblasts; actives raise or lower the signal
Activity calls are given as the source filed them. Rule for the calls: active = hit-call score of the fitted dose curve at least 0.9, where 1 is the maximum; inactive = score below 0.9.
Parameter Measured: AC50

Oc1cc(Cl)ccc1Cl	inactive
CCCCCCCCCCCC#N	31.8 µM (active)
C=CCN(CC=C)C(=O)C(Cl)Cl	inactive
Nc1ccc(-c2ccc(N)c(N)c2)cc1N	inactive
C=CC(=O)OCC(CC)CCCC (stereo not drawn)	20 µM (active)
CC(C)CCCCCCCOP(=O)(Oc1ccccc1)Oc1ccccc1	8.46 µM (active)
CC(C)(c1cc(Cl)c(O)c(Cl)c1)c1cc(Cl)c(O)c(Cl)c1	6.66 µM (active)
O=C(CCl)c1ccccc1	6.44 µM (active)

Find the recorded AC50 belonging to O=C1C(Cl)=C(Cl)C(=O)C(Cl)=C1Cl and report it.
27.1 µM (active)

Find the recorded AC50 belonging to CCc1cc(C)cc(CC)c1-c1c(OC(=O)C(C)(C)C)n2n(c1=O)CCOCC2 and report it.
3.97 µM (active)

* * *

# Experimental Protocol: CCTE_Shafer_MEA_acute_synchrony_index: CCTE's Neural Acute Assay for Synchrony, Shafer Lab (AID 2284027);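 also: network synchrony index of spontaneous spiking in primary rat cortical neurons on MEAs; fitted for loss of signal so actives lower synchrony relative to DMSO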
The source made the active and inactive calls. How the source made its calls: active means hit-call score of the fitted dose curve at least 0.9, where 1 is the maximum; inactive means score below 0.9.
Parameter Measured: AC50

Guide cases for AC50, answers given:
CP(=O)(O)CCC(N)C(=O)O (stereo not given)	inactive
CC1(C)[C@H](C=C(Cl)Cl)[C@@H]1C(=O)O[C@@H](C#N)c1cccc(Oc2ccccc2)c1	1390 nM (active)
[Cd+2].[Cl-].[Cl-]	inactive
O=C(O)CNCP(=O)(O)O	inactive
CC1(C)[C@H](C(=O)O[C@H](C#N)c2cccc(Oc3ccccc3)c2)[C@@H]1C=C(Br)Br	866 nM (active)
COc1ccc(CO)cc1	3810 nM (active)
CCCC[N+](CCCC)(CCCC)CCCC	9180 nM (active)
C#CCN(C)[C@H](C)Cc1ccccc1	inactive
CC1(C)[C@@H](C=C(Cl)Cl)[C@@H]1C(=O)O[C@@H](C#N)c1ccc(F)c(Oc2ccccc2)c1	512 nM (active)

Turning to the following compound.
Find the recorded AC50 belonging to O=c1c2ccccc2c(=O)c2c1cc(Cl)c1[nH]c3c([nH]c12)c(Cl)cc1c(=O)c2ccccc2c(=O)c13 and report it.
inactive
